# test context: 480 K; Liquid; Gas chromatography
We label by threshold. Values of vapor or sublimation pressure strictly beneath 6 kPa are Met. Values of 6 kPa and up are Not met.

- compound: "CCOC(=O)/C=C(C)/C=C/C[C@@H](C)CCCC(C)C [ethyl (S,2E,4E)-3,7,11-trimethyldodeca-2,4-dienoate]"
  class name: "Met"
- compound: "CCCC/C=C\\CCCCCCCCCCCCOC(C)=O [(Z)-octadec-13-en-1-yl acetate]"
  class name: "Met"
- compound: "CCC/C=C\\CCCCCCCOC(C)=O [(Z)-dodec-8-enyl acetate]"
  class name: "Not met"
- compound: "CCCCCCCC/C=C\\CCCOC(C)=O [(Z)-tridec-4-enyl acetate]"
  class name: "Not met"

Given CC/C=C/C=C/CCCCCCCCOC(C)=O [(9E,11E)-tetradeca-9,11-dienyl acetate] , is recorded vapor or sublimation pressure strictly lower than 6 kPa?
Met

Given C#CCOC(=O)/C=C(C)/C=C/CC(C)CCCC(C)C (configuration not stated) [prop-2-ynyl (2E,4E)-3,7,11-trimethyldodeca-2,4-dienoate] , is recorded vapor or sublimation pressure strictly lower than 6 kPa?
Met

Given CC/C=C/CCCCCCCCCCOC(C)=O [(E)-tetradec-11-enyl acetate] , is recorded vapor or sublimation pressure strictly lower than 6 kPa?
Met

The measurements presented in this section are drawn from the NIST ThermoML archive (doi:10.1021/acs.jced.5b00892).
